# System: Methicillin Resistant Staphylococcus aureus
# method: In vitro antibacterial activity, broth microdilution MIC90
# Assay type: cell-based
# reported_conditions: Staphylococcus aureus
Lab note: compare MIC90 with 1 µg/mL, writing yes if less and no if equal or more.

INSERT INTO assay_data (compound, target, group_label) VALUES
  ('CCN1CCN(c2ccc(-c3ccc(N4C[C@H](CO)OC4=O)cc3F)cn2)C=N1 [Compound 29]', 'Methicillin Resistant Staphylococcus aureus', 'no'),
  ('CC(=O)NC[C@H]1CN(c2ccc(-c3ccc(N4C=NN(C(=O)CO)CC4)nc3)c(F)c2)C(=O)O1 [Compound 11]', 'Methicillin Resistant Staphylococcus aureus', 'yes'),
  ('NCC(=O)N1CCN(c2ccc(-c3ccc(N4C[C@H](Cn5ccnn5)OC4=O)cc3F)cn2)C=N1 [Compound 38]', 'Methicillin Resistant Staphylococcus aureus', 'yes'),
  ('CC(=O)NC[C@H]1CN(c2ccc(-c3ccc(N4CCN(C(=O)CO)C=N4)nc3)c(F)c2)C(=O)O1 [Compound 54]', 'Methicillin Resistant Staphylococcus aureus', 'yes'),
  ('CC(=O)NC[C@H]1CN(c2ccc(-c3ccc(N4C=NN(C)CC4)nc3)c(F)c2)C(=O)O1 [Compound 3]', 'Methicillin Resistant Staphylococcus aureus', 'yes');

Confirm or reject: MIC90 of CNC(=O)N1CCN(c2ccc(-c3ccc(N4C[C@H](CNC(=O)OC)OC4=O)cc3F)cn2)C=N1 [Compound 27] lies strictly below 1 µg/mL
no

Lab note: MIC90 threshold 1 µg/mL. Does this compound come in strictly under it? CC(=O)NC[C@H]1CN(c2ccc(-c3ccc(N4C=NN(CC(=O)O)CC4)nc3)c(F)c2)C(=O)O1 [Compound 10]
no

====

Below: a set of entries, each annotated with reported MIC90.
# Test system: Methicillin Resistant Staphylococcus aureus
# method: In vitro antibacterial activity, broth microdilution MIC90
# Type: cell-based
# reported_conditions: Staphylococcus aureus
Your answer is read as µg/mL, so omit the unit and give the number.

Below are worked cases with known answers.
INSERT INTO measurements (compound, value_observed) VALUES
  ('CN1CCN(c2ccc(-c3ccc(N4C[C@H](Cn5ccnn5)OC4=O)cc3F)cn2)C=N1 [Compound 31]', 1),
  ('CC(=O)NC[C@H]1CN(c2ccc(-c3ccc(N4C=NN(C(=O)COC(C)=O)CC4)nc3)c(F)c2)C(=O)O1 [Compound 12]', 0.25),
  ('C#CCN1C=NN(c2ccc(-c3ccc(N4C[C@H](CNC(C)=O)OC4=O)cc3F)cn2)CC1 [Compound 55]', 4),
  ('CC(=O)NC[C@H]1CN(c2ccc(-c3ccc(N4C=NN(C(=O)CN)CC4)nc3)c(F)c2)C(=O)O1 [Compound 19]', 0.5),
  ('CC(=O)NC[C@H]1CN(c2ccc(-c3ccc(N4C=NN(C(N)=O)CC4)nc3)c(F)c2)C(=O)O1 [Compound 17]', 0.5),
  ('COC(=O)NC[C@H]1CN(c2ccc(-c3ccc(N4C=NN(C(=O)CO)CC4)nc3)c(F)c2)C(=O)O1 [Compound 25]', 0.5),
  ('CC(=O)NC[C@H]1CN(c2ccc(-c3ccc(N4C=NN(CC(=O)OC(C)(C)C)CC4)nc3)c(F)c2)C(=O)O1 [Compound 9]', 4),
  ('CNC(=O)N1CCN(c2ccc(-c3ccc(N4C[C@H](Cn5ccnn5)OC4=O)cc3F)cn2)C=N1 [Compound 34]', 0.5),
  ('CC(=O)NC[C@H]1CN(c2ccc(-c3ccc(N4CCNC=N4)nc3)c(F)c2)C(=O)O1 [Compound 53]', 2),
  ('COC(=O)NC[C@H]1CN(c2ccc(-c3ccc(N4C=NN(C(N)=O)CC4)nc3)c(F)c2)C(=O)O1 [Compound 26]', 1);

Lab note: O=C(C(O)CO)N1CCN(c2ccc(-c3ccc(N4C[C@H](Cn5ccnn5)OC4=O)cc3F)cn2)C=N1 (stereo partly drawn) [Compound 37] gave MIC90 of 1

Given item C=CCN1CCN(c2ccc(-c3ccc(N4C[C@H](CNC(C)=O)OC4=O)cc3F)cn2)C=N1 [Compound 7] , the value recorded as its MIC90 is 1

Value of measured MIC90 for the entry O=C1O[C@@H](Cn2ccnn2)CN1c1ccc(-c2ccc(N3C=NNCC3)nc2)c(F)c1 [Compound 30] : 1

Reported MIC90 of CC(=O)NC[C@H]1CN(c2ccc(-c3ccc(N4C=NN(C(=O)C5COC(C)(C)O5)CC4)nc3)c(F)c2)C(=O)O1 (stereo partly drawn) [Compound 20] : 8

MIC90 reading for CNC(=O)N1CCN(c2ccc(-c3ccc(N4C[C@H](CNC(C)=O)OC4=O)cc3F)cn2)C=N1 [Compound 16] : 1

meta.source: patent US8846669B2
